Test system: SK-OV-3 ovarian
experimental_details: NCI tumour cell line growth inhibition, 48 h
# TGI listing for each entry below
The answer is to be given in µM; state only the numeric part.

Look over these answered cases.
CN1C(=O)C(c2c[nH]c3ccccc23)=C(c2c(-c3c[nH]c4ccccc34)[nH]c3ccccc23)C1=O ... 13
O=[N+]([O-])c1ccc(N=Nc2c(O)[nH]c3ccccc23)cc1 ... 65.3

Next up:
Inquiry: Please give the measured TGI for this compound: "CS(=O)(=O)O.[Ag]"
Reply text: 36.4

====

System: NCI-H460 lung
Output constraint: value belongs to active, inactive

Cc1cc2nc3c4cccc(O)c4n(CCN(C)C)c3nc2cc1C ... inactive
CCC[CH2][Sn]1([CH2]CCC)[O]C(=O)CN=Cc2ccccc2[O]1 ... inactive
CCOC(=O)C1=C(c2ccccc2)N(c2ccc(OC)cc2)[C@]2(C#N)C(O)=C(Cl)C(Cl)=C(O)[C@]12C#N ... inactive
O=[N+]([O-])c1cccc(-c2cc(-c3cc(Br)ccc3O)[nH]n2)c1 ... inactive
Cc1ccc(F)cc1NC(=O)c1cc(Cl)ccc1Nc1ccccc1 ... inactive
C=C(C)[C@@H]1CC[C@]2(C(=O)NCCNCCNCCN)CC[C@]3(C)[C@H](CC[C@@H]4[C@@]5(C)CCC(=O)C(C)(C)[C@@H]5CC[C@]43C)[C@@H]12 ... inactive

Inquiry: // return assay outcome for "N=C(N)c1ccc(-c2ccc(-c3ccc(F)cc3)o2)o1"
Reply text: inactive

Inquiry: // return assay outcome for "COc1cc2c(cc1OCCCN1CCN(c3cc(=O)oc4c(C)c(OC)ccc34)CC1)N=C[C@@H]1CCCN1C2=O"
Reply text: inactive
